B1: MEF2-activating motif and SAP domain-containing transcriptional regulator, residues 170 to 204; numbered along this chain, Q6ZN01 (parent)
chain: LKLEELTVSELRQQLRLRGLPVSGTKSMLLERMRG

variants of: B1; assay: abundance fitness (aPCA) (normalised: wild type 0, dead -1); higher = more abundant; growth selection in yeast, the domain comes from the species named; details: Homo sapiens
observable: abundance fitness

1) LKLEELTVSELRQQLRLRGLPVSGKKSMLLERMRG [T25K]; -0.204
2) LKLEELTVSELRQQLRLRGLPVSGPKSMLLERMRG [T25P]; -0.29
3) LKLEELTVSELRQQLRLRGLPVSGTKSMLLETMRG [R32T]; 0
4) LKLEELTVSELRQQLRLRGLPVSGTKSMLMERMRG [L30M]; -0.179
5) LKLEELQVSELRQQLRLRGLPVSGTKSMLLERMRG [T7Q]; -0.336
6) LKLEELTVSELRQQLRLRGLPVMGTKSMLLERMRG [S23M]; -0.222
7) LKLEELTVSELRQQLRCRGLPVSGTKSMLLERMRG [L17C]; -0.102
8) LKLEELTVSERRQQLRLRGLPVSGTKSMLLERMRG [L11R]; -0.565
9) WKLEELTVSELRQQLRLRGLPVSGTKSMLLERMRG [L1W]; -0.045
10) LKLEELTVSELRQQLRLRGLPQSGTKSMLLERMRG [V22Q]; -0.108
11) LKLEELTVSELRQQLRLRGLPVSGTKSQLLERMRG [M28Q]; 0.067
12) LKLEELTVSELRQQLRLRGLDVSGTKSMLLERMRG [P21D]; -0.094
13) LKLEWLTVSELRQQLRLRGLPVSGTKSMLLERMRG [E5W]; -0.776
14) LKLEELTVSELRQQLRLRGLPVSGTKSMNLERMRG [L29N]; -0.683
15) LKLEELWVSELRQQLRLRGLPVSGTKSMLLERMRG [T7W]; -0.518
16) LKWEELTVSELRQQLRLRGLPVSGTKSMLLERMRG [L3W]; -0.434
17) LKLEELTVSELRQQLRLRGLPVSGTKSMLLERRRG [M33R]; -0.66
18) LKLEELTVSELRQQLRLRGLPVSGTKEMLLERMRG [S27E]; 0.081
19) LKLEELTVSELRQQERLRGLPVSGTKSMLLERMRG [L15E]; -0.38
20) LKLEELTVSELRQQLRLAGLPVSGTKSMLLERMRG [R18A]; -0.009
21) LKLEELTQSELRQQLRLRGLPVSGTKSMLLERMRG [V8Q]; -0.648
22) LKLEELTVSELRQQCRLRGLPVSGTKSMLLERMRG [L15C]; 0.149
23) LKLETLTVSELRQQLRLRGLPVSGTKSMLLERMRG [E5T]; -0.271
24) LKLEELTVSELRQQLRLRGLPVSGTKSMLLERLRG [M33L]; 0.206
25) LKLEELTVSELRQQLRLRCLPVSGTKSMLLERMRG [G19C]; -0.559
26) LKLEELTVSELRQQLRLRGLPVSGTKSMLLERWRG [M33W]; -0.538
27) LKLEELTVSELRQQLRRRGLPVSGTKSMLLERMRG [L17R]; -0.155
28) LKLEELTVSELRQQLRLRGLPVSGTKSMPLERMRG [L29P]; -0.909
29) LKLEELTVSELRQQLRLRGKPVSGTKSMLLERMRG [L20K]; -0.555
30) LKLEELTVSELRQQLRLRGLPVSGQKSMLLERMRG [T25Q]; -0.441
31) LKLEELTVSELRQQLRLRGLPVSGTKSMLLVRMRG [E31V]; -1.16
32) LKLEEVTVSELRQQLRLRGLPVSGTKSMLLERMRG [L6V]; -0.399
33) LKLEELTVSELRQQLRLRGLPVSGTKSGLLERMRG [M28G]; -0.512
34) LKLEELTVSTLRQQLRLRGLPVSGTKSMLLERMRG [E10T]; -0.782
35) LKLEELTVSELRQQLRLRGLPVSGTESMLLERMRG [K26E]; -0.379
36) LKLEELTVSELLQQLRLRGLPVSGTKSMLLERMRG [R12L]; -0.523
37) LKLEELTVSELRQQLRQRGLPVSGTKSMLLERMRG [L17Q]; -0.032
38) LKLEELTVSELRQQLRLRGLPVSGTKSMLLEVMRG [R32V]; -0.368
39) LKLEELTVSELRVQLRLRGLPVSGTKSMLLERMRG [Q13V]; -0.11
40) LKLEELLVSELRQQLRLRGLPVSGTKSMLLERMRG [T7L]; -0.768
41) LKLEELTVSELRQQLRLRGLPVSGTKSMLLERMDG [R34D]; -0.396
42) LKLEELTVSELRQQLRLRGLPVSGTKSMLLERMTG [R34T]; -0.045
43) LKLELLTVSELRQQLRLRGLPVSGTKSMLLERMRG [E5L]; -0.548
44) LKLEELTSSELRQQLRLRGLPVSGTKSMLLERMRG [V8S]; -0.28
45) LKLEELTVDELRQQLRLRGLPVSGTKSMLLERMRG [S9D]; 0.173
46) LKLEELTVSELRQQLRLRGLPVSGTKCMLLERMRG [S27C]; -0.455
